- ASSAY SYSTEM: T1, CFP-RapA (Bacillus subtilis 168, UniProt Q00828 1-378)
- T1 construct: RapA, Rap-family RRNPP-type receptor (response regulator aspartate phosphatase A) of Bacillus subtilis; rapA amplified from B. subtilis 168 genomic DNA; ecfp(Bs) is joined to the N-terminus of RapA by a GSGGV linker; also called RapA receptor; RapA-CFP; source: B. subtilis reporter strain BIB625 (ΔrapA-phrA Δspo0F), IPTG-induced from the amyE locus, in living cells; not shown: eCFP(Bs), …
- T1 sequence (looked up): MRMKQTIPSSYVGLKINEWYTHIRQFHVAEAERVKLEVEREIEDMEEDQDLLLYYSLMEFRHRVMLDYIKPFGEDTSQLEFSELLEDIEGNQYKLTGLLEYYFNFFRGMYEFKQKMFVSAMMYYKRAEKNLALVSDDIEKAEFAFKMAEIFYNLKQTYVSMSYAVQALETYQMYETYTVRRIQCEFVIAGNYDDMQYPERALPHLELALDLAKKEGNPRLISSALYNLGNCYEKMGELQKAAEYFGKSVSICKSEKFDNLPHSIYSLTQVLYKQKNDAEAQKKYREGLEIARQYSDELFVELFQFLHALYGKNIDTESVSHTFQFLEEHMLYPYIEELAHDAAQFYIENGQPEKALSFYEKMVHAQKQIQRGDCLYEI
- METHOD SUMMARY: FRET or BRET; loss of CFP-RapA/Spo0F-YFP FRET in B. subtilis reporter cells against PhrA; EC50 is the intracellular PhrA concentration of the half-maximal response, inferred by fitting all data of Figs. 4 and 5 to the pump-probe model (Hill function)
- CONDITION NOTES: one partner purified
pEC50: −log10 of the molar value.

BINDER: ARNQT (PhrA, the mature linear pentapeptide derived from the phrA gene product of Bacillus subtilis; also called PhrA pentapeptide; ARNQT; source: synthetic peptide (Peptides and Elephant, purity >95%)) [PhrA]
pEC50: 4.42

Source listed as paper PMC7055314.
